// data source = PubChem BioAssay (NCI)

Reported TGI by item:
# Test system: TK-10 renal
# MEASUREMENT NOTES: NCI tumour cell line growth inhibition, 48 h
Output spec: scalar in µM, unitless text.

[[record]]
line_notation = "O=C1Nc2ccc(Br)cc2/C1=C/C(=O)c1ccccc1"
unit_text = "µM"
value = 3.7


TGI in this record for O=C1COCCN1c1ccc(NCc2cn(C(=O)c3ccc(Cl)cc3)c3ccccc23)cc1 : 2.18

TGI in this record for Cc1ccc(-c2c3c(N)c4c(nc3nc3c2c(C)nn3-c2ccccc2)CCC4)cc1 : 5.42

TGI in this record for CC1=C(C(=O)Nc2ccccc2C)C(c2ccccc2C)C(C(=O)Nc2ccccc2C)=C(C)N1 : 64.4

TGI in this record for CCC(=O)c1c(C(F)(F)F)n([O-])c2ccccc2[n+]1=O : 14.5
